- System: U251 CNS
- METHOD: NCI tumour cell line growth inhibition, 48 h
Some molecules, each annotated with its measured TGI.

| MOLECULE | TGI |
| --- | --- |
| Nc1ncnc2oc(-c3cccs3)nc12 | > 100 µM |
| CSC1(C)CC2C(CC1N1CCCCC1)C2(C)C (stereo unspecified) | > 100 µM |
| COc1ccc2[nH]c3c(C)c4ccnc(NCCCN(C)CCCNc5ccc6nnn7c8ccccc8c(=O)c5c67)c4c(C)c3c2c1 | 1.67 µM |
| CCCCCC(/C=N/Nc1ccccc1)C(O)(C(F)(F)F)C(F)(F)F (stereo unspecified) | > 100 µM |
| O=C(Cc1csc2nc(-c3ccc(Br)cc3)cn12)N/N=C/c1cc(Br)ccc1O | > 100 µM |
| COc1c(CC(=O)c2ccccc2)c2ccccc2n1C(C)=O | > 100 µM |
| CC(=O)Nc1ccc(-c2csc(Nc3ccc(-c4csc(-c5ccccc5)n4)cc3)n2)cc1 | 21.3 µM |
| C[C@H](CCC(=O)NN)[C@H]1CC[C@H]2[C@@H]3CC[C@@H]4C[C@H](O)CC[C@]4(C)[C@H]3CC[C@]12C | > 100 µM |
| Cc1ccccc1N=Nc1cc(C)c(N=Nc2c(O)ccc3ccccc23)cc1C | > 100 µM |
| COc1ccc2c(c1)CC1Cc3cc(OC)c(OC)cc3CN1CC2 (stereo unspecified) | > 100 µM |
| N#CC(C#N)=C/C=C(\Sc1ccc(F)c(Cl)c1)c1ccc(Cl)cc1 | 2.61 µM |
| Cc1ccnc(NS(=O)(=O)c2ccc(NC3=CC(=O)C(=O)c4ccccc43)cc2)n1 | > 100 µM |
| CC/C(CC(=O)CCC(=O)Nc1c(C)cccc1C)=N\NC(=O)NN | > 100 µM |
| C=C(C(=O)OC)[C@H]1CC/C(C)=C/CC[C@@](C)(O)C=CC[C@@]2(C)O[C@@H]2C1 | > 100 µM |
| O=c1c(O)c(O)c1=O.[NH2-].[NH2-].[NH2-].[NH2-].[NH2-].[Ru+5] | > 100 µM |
| O=c1c2cc(I)ccc2nc(-c2cccs2)n1-c1ccc(S(=O)(=O)Nc2nccs2)cc1 | 81.7 µM |
